# Assay Setup: 298.15 K; 101.33 kPa; Liquid
I'd be grateful if you could share measured mass density for these entries.
Answers are plain numbers, in kg/m3.

Known mass density results, listed for orientation:
>  <Compound>
ClCC1CO1 (configuration not stated)

>  <Readout Unit>
kg/m3

>  <mass density>
1174.6

$$$$
>  <Compound>
CC(=O)N(C)C [N,N-dimethylethanamide]

>  <Readout Unit>
kg/m3

>  <mass density>
936.3

$$$$
>  <Compound>
Cc1ccccn1

>  <Readout Unit>
kg/m3

>  <mass density>
939.8

$$$$
>  <Compound>
C=CC#N

>  <Readout Unit>
kg/m3

>  <mass density>
800.4

$$$$
>  <Compound>
CCc1ccccc1

>  <Readout Unit>
kg/m3

>  <mass density>
862.5

$$$$

Record mass density for all entries; do not skip any.
1. CCCCCO
2. CC(=O)CC(C)C

1. 815
2. 796.3

###

Exercise: for every item that follows, state its recorded refractive index.
# Procedure Text: refractive index (Na D-line) (dimensionless)
# Assay Setup: 298.15 K; 101.33 kPa; Liquid; Abbe refractometer
Numbers only.

// worked examples, refractive index included
>  <Compound>
Cc1ccccn1

>  <Measured Number>
1.4984

$$$$
>  <Compound>
CC(=O)N(C)C [N,N-dimethylethanamide]

>  <Measured Number>
1.4356

$$$$

# batch: return refractive index for each of the 2 compounds below
1. CCc1ccccc1
2. CCCCCO

[1.4932, 1.4085]

For each of the compounds below, state refractive index.
1. ClCC1CO1 (configuration not stated)
2. CC(=O)CC(C)C
3. C=CC#N

[1.4358, 1.3936, 1.3888]

These entries and their values trace back to the NIST ThermoML archive (doi:10.1016/j.jct.2004.11.015).
